meta.source: patent US10208089B2

Target: C5 (Homo sapiens, UniProt P01031)
Sequence (P01031 19-1676): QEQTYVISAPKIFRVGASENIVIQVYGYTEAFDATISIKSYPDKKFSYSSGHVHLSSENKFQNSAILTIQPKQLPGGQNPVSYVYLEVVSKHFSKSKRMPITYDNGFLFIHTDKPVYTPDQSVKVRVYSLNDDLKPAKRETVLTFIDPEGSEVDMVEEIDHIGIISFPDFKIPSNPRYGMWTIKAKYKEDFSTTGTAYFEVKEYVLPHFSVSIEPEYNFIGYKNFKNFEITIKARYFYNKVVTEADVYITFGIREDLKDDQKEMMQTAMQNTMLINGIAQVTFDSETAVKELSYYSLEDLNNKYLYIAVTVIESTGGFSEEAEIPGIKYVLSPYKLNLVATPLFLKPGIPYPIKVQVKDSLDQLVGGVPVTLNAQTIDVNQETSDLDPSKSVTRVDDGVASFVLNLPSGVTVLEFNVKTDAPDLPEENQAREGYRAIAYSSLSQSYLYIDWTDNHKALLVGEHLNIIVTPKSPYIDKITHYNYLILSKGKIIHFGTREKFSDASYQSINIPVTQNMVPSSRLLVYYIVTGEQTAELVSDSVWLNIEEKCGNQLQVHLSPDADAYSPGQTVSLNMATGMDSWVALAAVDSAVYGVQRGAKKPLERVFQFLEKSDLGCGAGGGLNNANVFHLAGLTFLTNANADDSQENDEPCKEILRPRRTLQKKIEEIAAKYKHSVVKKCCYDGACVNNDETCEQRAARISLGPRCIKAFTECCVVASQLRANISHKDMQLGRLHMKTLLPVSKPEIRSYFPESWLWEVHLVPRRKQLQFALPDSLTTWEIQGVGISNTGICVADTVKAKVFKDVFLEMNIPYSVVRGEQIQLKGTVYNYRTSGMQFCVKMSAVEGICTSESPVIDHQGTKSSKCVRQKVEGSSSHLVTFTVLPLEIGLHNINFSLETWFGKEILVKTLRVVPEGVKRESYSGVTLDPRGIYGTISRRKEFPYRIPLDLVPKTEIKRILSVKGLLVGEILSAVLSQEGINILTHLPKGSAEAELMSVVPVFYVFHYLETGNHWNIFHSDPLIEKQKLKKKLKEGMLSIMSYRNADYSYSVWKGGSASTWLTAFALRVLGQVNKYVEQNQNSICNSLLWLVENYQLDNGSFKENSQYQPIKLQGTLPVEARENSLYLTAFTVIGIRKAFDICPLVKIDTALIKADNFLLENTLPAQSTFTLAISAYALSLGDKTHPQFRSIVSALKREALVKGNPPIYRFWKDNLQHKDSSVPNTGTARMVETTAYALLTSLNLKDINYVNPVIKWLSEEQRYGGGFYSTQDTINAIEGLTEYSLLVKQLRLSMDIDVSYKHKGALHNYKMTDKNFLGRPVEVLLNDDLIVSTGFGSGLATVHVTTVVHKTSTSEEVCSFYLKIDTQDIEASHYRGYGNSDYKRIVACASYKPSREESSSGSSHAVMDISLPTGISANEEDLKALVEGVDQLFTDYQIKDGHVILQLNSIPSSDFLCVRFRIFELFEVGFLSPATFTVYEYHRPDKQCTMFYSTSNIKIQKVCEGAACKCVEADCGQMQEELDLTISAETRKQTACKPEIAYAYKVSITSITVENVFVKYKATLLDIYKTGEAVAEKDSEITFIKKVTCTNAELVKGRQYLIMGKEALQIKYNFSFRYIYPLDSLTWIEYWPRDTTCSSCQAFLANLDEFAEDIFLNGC
Assay: Competitive fluorescence polarization assay with probe R3076
Type: binding
Set-up: purchased Complement Technology, Tyler, Tex
Conditions: probe R3076 25 nM, C5 50 nM
Starred links: 1 amine or outer side, 2 acyl side, 3 side chain; linkers in the order of their positions; H or OH if unused. Positions of bridges follow the written chain, without caps; N, C: chain ends. Non-standard residues stand in square brackets, D forms with d. Residues, ends and D or L forms follow the SMILES beside them. Trp(7-aza) = N[C@@H](Cc1c[nH]c2ncccc12)C(=O)O; mXylylene = c1cc(C[*:1])cc(C[*:2])c1; Phg = N[C@H](C(=O)O)c1ccccc1; NMeS = CN[C@@H](CO)C(=O)O; Nva = CCC[C@H](N)C(=O)O
valueKind: competition with labeled probe / affinity for C5 (in words)

| compound | measValue |
| --- | --- |
| CSCC[C@H](N)C(=O)N[C@H]1CSCc2cccc(c2)CSC[C@@H](C(=O)N[C@@H](CC(=O)O)C(=O)N[C@H](C(=O)N[C@@H](Cc2ccc(O)cc2)C(=O)N[C@@H](Cc2c[nH]c3ccccc23)C(=O)N[C@@H](CCC(=O)O)C(N)=O)C(C)C)NC(=O)[C@H](Cc2ccccc2)NC(=O)[C@H](CCCNC(=N)N)NC(=O)[C@H](CCC(=O)O)NC(=O)[C@H](C(C)C)NC1=O [Compound R3043, [mXylyl(2,7)]M-C-V-E-R-F-C-D-V-Y-W-E-NE2] (H-MCVERFCDVYWE-NH2; linker 2-7 via mXylylene) | weak affinity |
| CCC[C@H](NC(=O)[C@@H]1CCCN1C(=O)[C@H](CCC)NC(=O)[C@@H]1CSCc2cccc(c2)CSC[C@H](NC(C)=O)C(=O)N[C@@H](c2ccccc2)C(=O)N[C@@H]([C@@H](C)O)C(=O)N[C@@H](Cc2c[nH]c3ncccc23)C(=O)N[C@@H](CCC(=O)O)C(=O)N[C@@H](Cc2ccc(O)cc2)C(=O)N(C)[C@@H](CO)C(=O)N[C@@H](Cc2c[nH]cn2)C(=O)N1)C(N)=O [Compound R3014] (Ac-C[Phg]T[Trp(7-aza)]EY[NMeS]HC[Nva]P[Nva]-NH2; linker 1-9 via mXylylene) | weak affinity |
